Here, each record is paired with measured half-life data.
# assayOverview: Half life in PEM buffer at pH 7.4
# Type: ADME

structureAsSmiles | half-life
COc1ccc(C[C@H]2NC(=O)/C=C/C[C@@H]([C@H](C)[C@@H](O)[C@@H](I)c3ccccc3)OC(=O)[C@H](CC(C)C)OC(=O)[C@H](C)CNC2=O)cc1Cl | < 1 min
COc1ccc(C[C@H]2NC(=O)/C=C/C[C@@H]([C@H](C)[C@@H](O)[C@@H](Br)c3ccccc3)OC(=O)[C@H](CC(C)C)OC(=O)[C@H](C)CNC2=O)cc1Cl | 3.7 min
COc1ccc(C[C@H]2NC(=O)/C=C/C[C@@H]([C@H](C)[C@@H](O)[C@@H](Cl)c3ccccc3)OC(=O)[C@H](CC(C)C)OC(=O)[C@H](C)CNC2=O)cc1Cl | 75 min

The measured values listed here are drawn from ChEMBL document CHEMBL1130901.
